- MEASURED_TARGET: T1, HLA-A*01:01 (human)
- T1 construct: MHC class I monomer first loaded with a UV-sensitive peptide (not identified) that is cleaved by UV irradiation and exchanged for the tested peptide; captured on streptavidin plates, detected with anti-β2m; also called peptide-receptive MHC molecules
- TEST: UV-ligand exchange, anti-b2m ELISA
MEASURE_NAME: peptide exchange yield

LSDNAANRY | 50 to 75%

Input `HLLSVSLYY` . Output peptide exchange yield: 10 to 20%

Input `PSEVPVDSHYY` . Output peptide exchange yield: 50 to 75%

Input `ASDDVRIEVGLY` . Output peptide exchange yield: > 75%
